Biological target: EGFR (T790M/L858R) (Homo sapiens, UniProt P00533, L858R/T790M)
Construct: GST
Sequence (P00533 25-1210 T790M/L858R): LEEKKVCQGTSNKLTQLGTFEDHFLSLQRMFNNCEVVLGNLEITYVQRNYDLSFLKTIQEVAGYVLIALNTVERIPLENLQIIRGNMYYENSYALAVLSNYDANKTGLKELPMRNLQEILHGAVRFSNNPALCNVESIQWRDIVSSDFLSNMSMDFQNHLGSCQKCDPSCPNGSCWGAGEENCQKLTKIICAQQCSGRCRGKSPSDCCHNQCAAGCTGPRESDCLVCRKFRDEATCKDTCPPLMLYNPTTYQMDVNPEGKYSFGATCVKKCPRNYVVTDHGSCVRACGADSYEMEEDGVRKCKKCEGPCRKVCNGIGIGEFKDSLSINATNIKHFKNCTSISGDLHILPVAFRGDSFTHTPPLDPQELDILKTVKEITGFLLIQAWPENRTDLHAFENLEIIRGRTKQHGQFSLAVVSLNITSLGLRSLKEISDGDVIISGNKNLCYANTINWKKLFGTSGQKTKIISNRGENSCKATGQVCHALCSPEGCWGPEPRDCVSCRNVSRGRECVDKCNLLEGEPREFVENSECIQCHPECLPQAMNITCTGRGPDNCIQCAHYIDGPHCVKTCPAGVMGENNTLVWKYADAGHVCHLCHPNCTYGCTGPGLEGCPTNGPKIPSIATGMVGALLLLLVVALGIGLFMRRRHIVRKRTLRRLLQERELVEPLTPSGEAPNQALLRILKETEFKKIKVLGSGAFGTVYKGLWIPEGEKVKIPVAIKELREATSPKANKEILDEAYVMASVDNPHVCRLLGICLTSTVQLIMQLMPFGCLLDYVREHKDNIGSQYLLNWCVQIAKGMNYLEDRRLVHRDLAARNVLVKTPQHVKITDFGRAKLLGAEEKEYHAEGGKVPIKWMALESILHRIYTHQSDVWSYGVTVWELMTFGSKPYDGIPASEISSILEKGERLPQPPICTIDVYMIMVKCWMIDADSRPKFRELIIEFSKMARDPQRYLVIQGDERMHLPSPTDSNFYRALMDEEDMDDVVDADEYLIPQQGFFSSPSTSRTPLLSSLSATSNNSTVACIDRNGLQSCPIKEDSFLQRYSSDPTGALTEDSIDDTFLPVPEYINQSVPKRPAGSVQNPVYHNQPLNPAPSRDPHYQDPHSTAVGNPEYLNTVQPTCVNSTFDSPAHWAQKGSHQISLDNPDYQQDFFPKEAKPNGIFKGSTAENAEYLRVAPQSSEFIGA
Test: EGFR L858R/T790M enzyme inhibition assay (HTRF)
Conditions: 5 μM ATP, 60 min, read-out: EGFR_L858R T790M_IC50_nM
MEASUREMENT NAME: IC50 (µM)

Reference set (5 entries):
C=CC(=O)NC1CCCC(N2C(=O)N(Cc3ccccc3)Cc3cnc(Nc4cn(C)nc4Cl)nc32)C1 (stereo not shown) [Compound 40]    0.098
Cc1csc(Nc2ncc3c(n2)N(C2CCCC(NC(=O)/C=C/CN(C)C)C2)C(=O)N(Cc2ccccc2)C3)n1 (stereo not shown) [Compound 29]    0.66
Cc1nn(C)cc1Nc1ncc2c(n1)N(c1cccc(NC(=O)/C=C/CN(C)C)c1)C(=O)N(Cc1ccccc1)C2 [Compound 23]    0.003
CN(C)C/C=C/C(=O)Nc1cccc(N2C(=O)N(Cc3ccccc3)Cc3cnc(Nc4ccc5c(cnn5C)c4)nc32)c1 [Compound 43]    0.0038
CN(C)C/C=C/C(=O)N1CCC(N2C(=O)N(Cc3ccccc3)Cc3cnc(Nc4cn(C)nc4Cl)nc32)C1 (stereo not shown) [Compound 34]    6.57

(a) C=CC(=O)N1CCC(N2C(=O)N(Cc3ccccc3)Cc3cnc(Nc4cn(C)nc4Cl)nc32)C1 (racemic) [Compound 37]
(b) CN(C)C/C=C/C(=O)NC1CCCC(N2C(=O)N(Cc3ccccc3)Cc3cnc(Nc4cn(C)nc4Cl)nc32)C1 (stereo not shown) [Compound 33]
Please state the entry with greater IC50 among a and b . Identify your pick by its label.
b

----------
Target: HER2 (A775_G776insYVMA) expressing Ba/F3 stable cell line (Homo sapiens, UniProt P04626, DUP772-775, cells depend on it)
Sequence (P04626 with tags, fused parts or gaps DUP772-775): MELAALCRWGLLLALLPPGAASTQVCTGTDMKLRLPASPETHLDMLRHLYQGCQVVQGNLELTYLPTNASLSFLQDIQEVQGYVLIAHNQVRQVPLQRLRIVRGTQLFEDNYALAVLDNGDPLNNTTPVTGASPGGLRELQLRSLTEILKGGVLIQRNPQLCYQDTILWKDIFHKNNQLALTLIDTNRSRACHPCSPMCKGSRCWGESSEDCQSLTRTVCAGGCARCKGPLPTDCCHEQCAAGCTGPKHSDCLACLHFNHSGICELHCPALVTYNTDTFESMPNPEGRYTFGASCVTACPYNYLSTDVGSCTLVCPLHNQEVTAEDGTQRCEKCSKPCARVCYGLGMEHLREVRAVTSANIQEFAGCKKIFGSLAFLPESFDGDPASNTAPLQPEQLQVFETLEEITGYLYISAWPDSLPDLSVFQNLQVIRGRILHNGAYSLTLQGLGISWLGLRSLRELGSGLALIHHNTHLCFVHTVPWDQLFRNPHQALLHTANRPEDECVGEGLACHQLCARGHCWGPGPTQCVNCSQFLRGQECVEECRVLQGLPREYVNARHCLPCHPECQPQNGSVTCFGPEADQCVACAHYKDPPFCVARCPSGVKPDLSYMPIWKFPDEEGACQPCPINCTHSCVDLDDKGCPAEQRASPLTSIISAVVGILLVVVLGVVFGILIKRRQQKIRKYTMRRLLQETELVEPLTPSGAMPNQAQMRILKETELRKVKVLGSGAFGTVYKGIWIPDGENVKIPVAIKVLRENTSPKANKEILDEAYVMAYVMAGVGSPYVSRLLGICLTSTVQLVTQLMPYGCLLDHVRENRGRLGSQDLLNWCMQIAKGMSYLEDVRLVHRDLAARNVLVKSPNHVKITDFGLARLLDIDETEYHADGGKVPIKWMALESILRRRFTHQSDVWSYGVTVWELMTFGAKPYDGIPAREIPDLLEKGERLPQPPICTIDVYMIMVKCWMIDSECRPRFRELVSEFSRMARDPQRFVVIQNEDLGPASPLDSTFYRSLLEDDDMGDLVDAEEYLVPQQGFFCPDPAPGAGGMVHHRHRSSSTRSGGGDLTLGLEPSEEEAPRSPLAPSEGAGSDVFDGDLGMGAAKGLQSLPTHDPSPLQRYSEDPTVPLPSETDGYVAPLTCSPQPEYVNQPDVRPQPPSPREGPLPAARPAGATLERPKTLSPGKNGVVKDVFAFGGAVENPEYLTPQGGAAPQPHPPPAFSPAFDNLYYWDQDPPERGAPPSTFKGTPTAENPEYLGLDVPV
Test: Cellular proliferation (Alamar Blue) assay, HER2 YVMA Ba/F3
Format: cell-based
Conditions: HER2 A775_G776insYVMA Ba/F3, 72 hr, read-out: YVMA IC50
Counter-ions that a name gives are not always drawn.
MEASUREMENT NAME: GI50 (nM)

C=CC(=O)Nc1cccc(N2C(=O)N(c3ccccc3)Cc3cnc(Nc4cnn(C5CCC(O)CC5)c4)nc32)c1 (stereo not drawn)    2020
Cn1cc(Nc2ncc3c(n2)N(c2cccc(NC(=O)/C=C/CN4CCCCC4)c2)C(=O)N(Cc2ccccc2)C3)c(F)n1    40
C=CC(=O)Nc1cccc(N2C(=O)N(c3ccccc3)Cc3cnc(Nc4cn(C5CCC(O)CC5)nc4Cl)nc32)c1 (stereo not drawn) [Compound 129, trifluoroacetate salt]    312
Cn1cc(Nc2ncc3c(n2)N(c2cccc(NC(=O)/C=C/CF)c2)C(=O)N(Cc2ccccc2)C3)c(Cl)n1    80
CN(C)C1CCN(C/C=C/C(=O)Nc2cccc(N3C(=O)N(c4ccccc4)Cc4cnc(Nc5cn(C)nc5Cl)nc43)c2)CC1    1480
C=CC(=O)Nc1cccc(N2C(=O)N(c3ccccc3)Cc3cnc(Nc4cccc5c4CCN5C4CCN(C)CC4)nc32)c1    103
CN(C)C/C=C/C(=O)Nc1cccc(N2C(=O)N(Cc3ccccc3)Cc3cnc(Nc4cn(C5CCN(C)CC5)nc4Cl)nc32)c1 [Compound 65, trifluoroacetate salt]    732
C=CC(=O)Nc1cccc(N2C(=O)N(c3ccccc3)Cc3cnc(Nc4cn(C5COC5)nc4Cl)nc32)c1    63

(I) CN(C)C/C=C/C(=O)Nc1cccc(N2C(=O)N(Cc3ccccc3)Cc3cnc(Nc4cn(C)nc4Cl)nc32)c1
(II) Cn1cc(Nc2ncc3c(n2)N(c2cccc(NC(=O)/C=C/CN4CCCCC4)c2)C(=O)N(c2ccccc2)C3)c(Cl)n1
Which gives the smaller GI50 number: I or II ? API: response body contains the label of the selected item.
I

(1) Cn1cc(Nc2ncc3c(n2)N(c2cccc(NC(=O)/C=C/CF)c2)C(=O)N(c2ccccc2)C3)c(Cl)n1
(2) CN(C)C/C=C/C(=O)Nc1cccc(N2C(=O)N(Cc3ccccc3)Cc3cnc(Nc4cnn(C)c4)nc32)c1
Compare the recorded GI50 of 1 and 2 ; state which is larger. Select an item and report its label.
2
(2: 178 nM, 1: 75 nM)

----------
Target: EGFR (A767_dupASV) expressing Ba/F3 stable cell line (Homo sapiens, UniProt P00533, DUP767-769, cells depend on it)
Sequence (P00533 with tags, fused parts or gaps DUP767-769): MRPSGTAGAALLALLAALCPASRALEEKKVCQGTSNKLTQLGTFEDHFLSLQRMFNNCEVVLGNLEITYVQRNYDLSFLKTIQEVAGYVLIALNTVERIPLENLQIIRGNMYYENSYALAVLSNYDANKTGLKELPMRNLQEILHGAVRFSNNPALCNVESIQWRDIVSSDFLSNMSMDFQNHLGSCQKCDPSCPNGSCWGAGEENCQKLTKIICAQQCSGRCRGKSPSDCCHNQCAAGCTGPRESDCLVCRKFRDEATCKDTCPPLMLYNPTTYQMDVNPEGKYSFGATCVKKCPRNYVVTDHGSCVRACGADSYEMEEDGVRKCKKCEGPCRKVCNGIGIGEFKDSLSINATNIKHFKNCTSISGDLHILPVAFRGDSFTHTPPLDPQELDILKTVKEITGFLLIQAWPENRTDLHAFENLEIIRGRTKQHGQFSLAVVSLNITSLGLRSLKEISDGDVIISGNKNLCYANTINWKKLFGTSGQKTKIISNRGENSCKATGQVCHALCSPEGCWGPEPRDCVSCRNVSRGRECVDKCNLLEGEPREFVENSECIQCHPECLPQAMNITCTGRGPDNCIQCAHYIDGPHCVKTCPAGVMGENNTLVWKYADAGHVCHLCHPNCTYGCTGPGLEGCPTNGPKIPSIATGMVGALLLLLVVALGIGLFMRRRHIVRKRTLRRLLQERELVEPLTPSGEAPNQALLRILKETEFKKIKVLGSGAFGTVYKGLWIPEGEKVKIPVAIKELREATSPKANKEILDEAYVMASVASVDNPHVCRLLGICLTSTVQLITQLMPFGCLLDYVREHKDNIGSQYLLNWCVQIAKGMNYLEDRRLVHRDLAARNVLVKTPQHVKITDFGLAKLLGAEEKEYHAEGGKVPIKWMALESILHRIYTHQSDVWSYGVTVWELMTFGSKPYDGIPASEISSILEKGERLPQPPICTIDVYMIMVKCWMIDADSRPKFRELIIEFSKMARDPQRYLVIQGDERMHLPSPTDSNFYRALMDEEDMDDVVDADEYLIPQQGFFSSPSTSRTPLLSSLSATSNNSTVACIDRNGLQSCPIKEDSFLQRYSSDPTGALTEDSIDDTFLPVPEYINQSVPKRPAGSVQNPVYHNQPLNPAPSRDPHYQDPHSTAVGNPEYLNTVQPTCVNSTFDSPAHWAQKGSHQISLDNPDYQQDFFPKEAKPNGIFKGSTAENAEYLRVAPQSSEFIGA
Test: Cellular proliferation (Alamar Blue) assay, EGFR A767_dupASV Ba/F3
Assay type: cell-based
Conditions: EGFR A767_dupASV Ba/F3, 72 hr, read-out: A767 IC50
MEASUREMENT NAME: GI50 (nM)

(P) C=CC(=O)Nc1cccc(N2C(=O)N(Cc3ccccc3)Cc3cnc(Nc4cnn(CCOC)c4)nc32)c1 [Compound 15]
(Q) CN(C)C/C=C/C(=O)Nc1ccc(F)c(N2C(=O)N(Cc3ccccc3)Cc3cnc(Nc4cn(C)nc4Cl)nc32)c1 [Compound 85]
(R) C=CC(=O)NC1CCCC(N2C(=O)N(Cc3ccccc3)Cc3cnc(Nc4cn(C)nc4Cl)nc32)C1 (stereo not shown) [Compound 40]
Rank the items above by GI50, largest value first. Write the labels out in the order the request specifies.
R, Q, P

----------
Biological target: EGFR (A767_dupASV) expressing Ba/F3 stable cell line (Homo sapiens, UniProt P00533, DUP767-769, cells depend on it)
Assay: Cellular proliferation (Alamar Blue) assay, EGFR A767_dupASV Ba/F3
Format: cell-based
Conditions: EGFR A767_dupASV Ba/F3, 72 hr, read-out: A767 IC50
Counter-ions that a name gives are not always drawn.
MEASUREMENT NAME: GI50 (nM)

(1) O=C(/C=C/CF)Nc1cccc(N2C(=O)N(c3ccccc3)Cc3cnc(Nc4cccnc4F)nc32)c1 [Compound 135]
(2) C=CC(=O)Nc1cccc(N2C(=O)N(c3ccccc3)Cc3cnc(Nc4cn(C5CCC(O)CC5)nc4Cl)nc32)c1 (centres unmarked) [Compound 129, trifluoroacetate salt]
(3) CN(C)C/C=C/C(=O)Nc1cccc(N2C(=O)N(Cc3ccccc3)Cc3cnc(Nc4cccc5c4CCN5C)nc32)c1 [Compound 80]
(4) CN(C)C/C=C/C(=O)Nc1cccc(N2C(=O)N(Cc3ccccc3)Cc3cnc(Nc4ccc5c(cnn5C)c4)nc32)c1 [Compound 43]
Could you please order the items by GI50, going from the lowest number to the highest? Form entry: labels listed in requested order.
1, 4, 2, 3
(1: 43 nM, 4: 103 nM, 2: 157 nM, 3: 343 nM)

----------
Target: EGFR(D770_N771insSVD) expressing Ba/F3 stable cell line (Homo sapiens, UniProt P00533, DUP768-770, cells depend on it)
Sequence (P00533 with tags, fused parts or gaps DUP768-770): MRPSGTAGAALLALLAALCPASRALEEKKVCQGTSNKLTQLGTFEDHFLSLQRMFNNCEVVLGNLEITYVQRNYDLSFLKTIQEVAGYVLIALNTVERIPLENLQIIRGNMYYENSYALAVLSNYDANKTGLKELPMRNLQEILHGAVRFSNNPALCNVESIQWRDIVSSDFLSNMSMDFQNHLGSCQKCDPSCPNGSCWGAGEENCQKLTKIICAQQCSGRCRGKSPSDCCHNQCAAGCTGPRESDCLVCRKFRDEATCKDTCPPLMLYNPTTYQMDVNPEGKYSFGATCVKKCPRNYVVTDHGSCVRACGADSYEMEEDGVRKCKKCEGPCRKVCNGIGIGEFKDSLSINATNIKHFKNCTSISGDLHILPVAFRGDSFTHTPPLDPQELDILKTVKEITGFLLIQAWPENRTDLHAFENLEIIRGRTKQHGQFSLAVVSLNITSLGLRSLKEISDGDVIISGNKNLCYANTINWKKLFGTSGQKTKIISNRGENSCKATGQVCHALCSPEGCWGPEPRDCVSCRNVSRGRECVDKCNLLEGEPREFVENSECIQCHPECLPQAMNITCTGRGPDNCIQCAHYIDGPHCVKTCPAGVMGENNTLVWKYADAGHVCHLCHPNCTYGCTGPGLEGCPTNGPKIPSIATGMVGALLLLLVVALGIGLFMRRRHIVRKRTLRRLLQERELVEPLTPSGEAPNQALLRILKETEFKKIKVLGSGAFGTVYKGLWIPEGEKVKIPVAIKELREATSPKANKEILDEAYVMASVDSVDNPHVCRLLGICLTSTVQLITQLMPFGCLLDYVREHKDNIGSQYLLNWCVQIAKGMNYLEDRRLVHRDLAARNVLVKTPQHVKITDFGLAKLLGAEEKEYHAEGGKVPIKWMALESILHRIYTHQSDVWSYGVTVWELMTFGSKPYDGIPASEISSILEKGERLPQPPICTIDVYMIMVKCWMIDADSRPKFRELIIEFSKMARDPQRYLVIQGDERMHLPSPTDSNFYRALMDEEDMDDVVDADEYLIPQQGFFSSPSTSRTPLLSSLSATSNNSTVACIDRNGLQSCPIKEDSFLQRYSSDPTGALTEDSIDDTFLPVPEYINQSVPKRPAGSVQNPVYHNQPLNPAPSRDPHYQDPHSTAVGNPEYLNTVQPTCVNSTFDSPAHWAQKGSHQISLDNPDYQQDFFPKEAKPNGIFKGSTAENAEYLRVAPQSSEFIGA
Assay: Cellular proliferation (Alamar Blue) assay, EGFR D770_N771insSVD Ba/F3
Type: cell-based
Details: EGFR D770_N771insSVD Ba/F3, 72 hr, read-out: D770 IC50
MEASUREMENT NAME: GI50 (nM)

(A) C/C=C/C(=O)Nc1cccc(N2C(=O)N(c3ccccc3)Cc3cnc(Nc4cn(C)nc4Cl)nc32)c1
(B) C=CC(=O)N1CC[C@H](N2C(=O)N(Cc3ccccc3)Cc3cnc(Nc4cn(C)nc4Cl)nc32)C1 (single isomer, unassigned)
(C) CN(C)C/C=C/C(=O)Nc1cccc(N2C(=O)N(Cc3ccccc3)Cc3cnc(Nc4cnn(C)c4)nc32)c1
Place the items in sequence of falling GI50. Please respond by ranking the labels in the order requested.
B, C, A

----------
Target: EGFR(D770_N771insSVD) expressing Ba/F3 stable cell line (Homo sapiens, UniProt P00533, DUP768-770, cells depend on it)
Test: Cellular proliferation (Alamar Blue) assay, EGFR D770_N771insSVD Ba/F3
Format: cell-based
Settings: EGFR D770_N771insSVD Ba/F3, 72 hr, read-out: D770 IC50
MEASUREMENT NAME: GI50 (nM)

Reference set (2 entries):
Cc1c(Nc2ncc3c(n2)N(c2cccc(NC(=O)/C=C/CN(C)C)c2)C(=O)N(Cc2ccccc2)C3)cnn1C [Compound 11]    2430
CC(c1ccccc1)N1Cc2cnc(Nc3cnn(C)c3)nc2N(c2cccc(NC(=O)/C=C/CN(C)C)c2)C1=O (racemic) [Compound 10]    108

(I) Cc1cc(Nc2ncc3c(n2)N(c2cccc(NC(=O)/C=C/CN(C)C)c2)C(=O)N(Cc2ccccc2)C3)sn1 [Compound 22]
(II) C=CC(=O)Nc1cccc(N2C(=O)N(c3ccccc3)Cc3cnc(Nc4ccc(N5CCN(C)CC5)nc4)nc32)c1 [Compound 110]
(III) COCCn1cc(Nc2ncc3c(n2)N(c2cccc(NC(=O)/C=C/CN(C)C)c2)C(=O)N(Cc2ccccc2)C3)cn1 [Compound 16]
Order the items by recorded GI50; the first position goes to the largest value. Lab note: final answer is the ordered label list.
III, I, II

----------
Molecular target: EGFR(D770_N771insSVD) expressing Ba/F3 stable cell line (Homo sapiens, UniProt P00533, DUP768-770, cells depend on it)
Assay: Cellular proliferation (Alamar Blue) assay, EGFR D770_N771insSVD Ba/F3
Type: cell-based
Details: EGFR D770_N771insSVD Ba/F3, 72 hr, read-out: D770 IC50
MEASUREMENT NAME: GI50

C=C(OC)C(=O)Nc1cccc(N2C(=O)N(c3ccccc3)Cc3cnc(Nc4cn(C)nc4Cl)nc32)c1 [Compound 127]    ≥ 10 µM
CN(C)C/C=C/C(=O)Nc1cccc(N2C(=O)N(c3ccccc3)Cc3cnc(Nc4cnn(C5CCC(O)CC5)c4)nc32)c1 (stereo not drawn) [Compound 107]    ≥ 10 µM

In the following, a different compound is considered.
Using the record for C=CC(=O)N1CCC(N2C(=O)N(Cc3ccccc3)Cc3cnc(Nc4cn(C)nc4Cl)nc32)C1 (racemic) [Compound 37] , report its GI50.
≥ 10 µM
